Tested on: K. pneumoniae β13
Test: In vitro antibacterial activity test (broth microdilution)
Type: cell-based
Conditions: Klebsiella pneumoniae, K. pneumoniae β13; read-out: MIC90
ASSAY_ENDPOINT: MIC90 (µg/mL)

response.value for C[C@H](O/N=C(\C(=O)N[C@@H]1C(=O)N2C(C(=O)[O-])=C(C[n+]3cnc(N)c(NC(=O)CCNC(=O)c4cc(=O)c(O)cn4O)c3)CSC12)c1nc(N)sc1Cl)C(=O)O (stereo partly shown) [Compound 20] (field: MIC90) = 1

1 = CC(C)(O/N=C(\C(=O)N[C@@H]1C(=O)N2C(C(=O)[O-])=C(/C=C/C[n+]3cnc(N)c(NC(=O)c4cc(=O)c(O)cn4O)c3)CSC12)c1csc(N)n1)C(=O)O (stereo partly shown) [Compound 14]
2 = C[C@H](O/N=C(\C(=O)N[C@@H]1C(=O)N2C(C(=O)[O-])=C(C[n+]3cnc(N)c(NCCNC(=O)c4cc(=O)c(O)c[nH]4)c3)CSC12)c1nc(N)sc1Cl)C(=O)O (stereo partly shown) [Compound 17]
# input Pick one, 1 or 2 : lowest reported MIC90. Indicate your choice by writing its label.
# output 1
(1: 0.5 µg/mL, 2: 1 µg/mL)

###

Test system: E. coli AG100
Test: In vitro antibacterial activity test (broth microdilution)
Format: cell-based
Details: E. coli AG100
Property: MIC90; scope: individual compounds
Give just the numeric value; µg/mL need not be written.

A selection of reference data follows.
Per the records, this compound ( CC(C)(O/N=C(\C(=O)N[C@@H]1C(=O)N2C(C(=O)[O-])=C(C[n+]3cnc(N)c(NCCN)c3)CSC12)c1csc(N)n1)C(=O)O (some centres unmarked) ) has MIC90 equal to 4

Memo: CC(C)(ON=C(C(=O)NC1C(=O)N2C(C(=O)O)=C(C=CC[n+]3cnc(N)c(NC(=O)CCN)c3N)CSC12)c1csc(N)n1)C(=O)O.O=C([O-])C(F)(F)F (centres unmarked) , reported MIC90: 0.25

// MIC90 lookup, compound = CC(C)(O/N=C(\C(=O)N[C@@H]1C(=O)N2C(C(=O)[O-])=C(/C=C/C[n+]3cnc(N)c(NCCNC(=O)c4cc(=O)c(O)cn4O)c3)CSC12)c1csc(N)n1)C(=O)O (some centres unmarked) [Compound 10] , result: 0.125

Okay, next one:
MIC90 measured on CC(C)(O/N=C(\C(=O)N[C@@H]1C(=O)N2C(C(=O)[O-])=C(/C=C/C[n+]3cnc(N)c(NCCNC(=O)c4cc(=O)c(O)cn4O)c3)CSC12)c1csc(N)n1)C(=O)O (some centres unmarked) [Compound 11] = 0.125

###

Tested on: P. aeruginosa 6065Y
Experiment: In vitro antibacterial activity test (broth microdilution)
Assay type: cell-based
Details: Pseudomonas aeruginosa, read-out: MIC90
Experimental: To evaluate antibacterial activity of each of the compounds of Examples 1 to 68, in vitro antibacterial activity test was performed. […] In vitro antibacterial activity was measured with respect to the following 19 clinical isolates: M. catarrhalis; P. aeruginosa (5 strains); K. pneumoniae (6 strains); A. baumannii (3 strains); E. coli (2 strains); A. calcoaceticus; and E. cloacae. […]
ASSAY_ENDPOINT: MIC90 (µg/mL)

Here are 2 compounds together with their reported answers.
P. aeruginosa 6065Y MIC90 of CC(C)(O/N=C(\C(=O)N[C@@H]1C(=O)N2C(C(=O)[O-])=C(C[n+]3cnc(N)c(NCCCCNC(=O)c4cc(=O)c(O)cn4O)c3)CSC12)c1csc(N)n1)C(=O)O (stereo partly drawn) is 1

With P. aeruginosa 6065Y as the test system, CC(C)(O/N=C(\C(=O)N[C@@H]1C(=O)N2C(C(=O)[O-])=C(C[n+]3cnc(N)c(NCCCC(=O)O)c3)CSC12)c1csc(N)n1)C(=O)O (stereo partly drawn) showed MIC90 of 128

I = C[C@H](O/N=C(\C(=O)N[C@@H]1C(=O)N2C(C(=O)[O-])=C(C[n+]3cnc(N)c(NCCNC(=O)c4cc(=O)c(O)cn4O)c3)CSC12)c1csc(N)n1)C(=O)O (stereo partly drawn)
II = CN(CCNc1c[n+](CC2=C(C(=O)[O-])N3C(=O)[C@@H](NC(=O)/C(=N\OC(C)(C)C(=O)O)c4csc(N)n4)C3SC2)cnc1N)C(=O)c1ccc(O)c(O)c1 (stereo partly drawn)
III = CC(C)(O/N=C(\C(=O)N[C@@H]1C(=O)N2C(C(=O)[O-])=C(C[n+]3cnc(N)c(NCCNC(=O)c4cc(=O)c(O)cn4O)c3)CSC12)c1nc(N)sc1Cl)C(=O)O (stereo partly drawn)
IV = C[C@H](O/N=C(\C(=O)N[C@@H]1C(=O)N2C(C(=O)[O-])=C(C[n+]3cnc(N)c(NCCNC(=O)c4cc(=O)c(O)c[nH]4)c3)CSC12)c1nc(N)sc1Cl)C(=O)O (stereo partly drawn)
V = CC(C)(O/N=C(\C(=O)N[C@@H]1C(=O)N2C(C(=O)[O-])=C(C[n+]3cnc(N)c(NCCNC(=O)c4ccc(O)c(C(=O)O)c4)c3)CSC12)c1csc(N)n1)C(=O)O (stereo partly drawn)
# input List items by MIC90 in falling order. List labels; respect the requested ordering.
# output V, II, IV, III, I

###

Test system: P. aeruginosa 6065Y
Assay: In vitro antibacterial activity test (broth microdilution)
Assay type: cell-based
Details: Pseudomonas aeruginosa, read-out: MIC90
ASSAY_ENDPOINT: MIC90 (µg/mL)

I = CC(C)(O/N=C(\C(=O)N[C@@H]1C(=O)N2C(C(=O)[O-])=C(C[n+]3cnc(N)c(NCCNC(=O)c4cc(=O)c(O)cn4O)c3)CSC12)c1nsc(N)n1)C(=O)O (stereo partly drawn)
II = C[C@H](O/N=C(\C(=O)N[C@@H]1C(=O)N2C(C(=O)[O-])=C(/C=C/C[n+]3cnc(N)c(NCCNC(=O)c4cc(=O)c(O)cn4O)c3)CSC12)c1csc(N)n1)C(=O)O (stereo partly drawn)
III = CC(C)(O/N=C(\C(=O)N[C@@H]1C(=O)N2C(C(=O)[O-])=C(C[n+]3cnc(N)c(NC(=O)CNC(=O)c4ccc(O)c(O)c4)c3)CSC12)c1csc(N)n1)C(=O)O (stereo partly drawn)
# input Sort the listed compounds above so the one with the largest MIC90 comes first and the smallest comes last. Your reply should list the labels following the order given in the request.
# output III, I, II

###

System: K. pneumoniae (38 clinical isolates)
Test: Antibacterial activity on representative drug-resistance bacteria: number of clinical isolates per MIC value
Type: cell-based
Conditions: MIC >16 ug/mL; K. pneumomiae (N = 38)
ASSAY_ENDPOINT: number of clinical isolates that showed the respective MIC value
Respond with the number and no other words.

Solved cases below.
Entry CC(C)(O/N=C(\C(=O)N[C@@H]1C(=O)N2C(C(=O)[O-])=C(/C=C/C[n+]3cnc(N)c(NCCNC(=O)c4cc(=O)c(O)cn4O)c3)CSC12)c1nc(N)sc1Cl)C(=O)O (stereo partly drawn) ; assay system K. pneumoniae (38 clinical isolates); number of clinical isolates that showed the respective MIC value recorded at 22

Per the reported K. pneumoniae (38 clinical isolates) data, CC(C)(O/N=C(\C(=O)N[C@@H]1C(=O)N2C(C(=O)[O-])=C(/C=C/C[n+]3cnc(N)c(NCCNC(=O)c4cc(=O)c(O)cn4O)c3)CSC12)c1csc(N)n1)C(=O)O (stereo partly drawn) [Compound 8] has number of clinical isolates that showed the respective MIC value of 35

Further cases:
# CC(C)(O/N=C(\C(=O)N[C@@H]1C(=O)N2C(C(=O)[O-])=C(/C=C/C[n+]3cnc(N)c(NCCNC(=O)c4cc(=O)c(O)cn4O)c3)CSC12)c1csc(N)n1)C(=O)O (stereo partly drawn) [Compound 11] with K. pneumoniae (38 clinical isolates): number of clinical isolates that showed the respective MIC value is 35

Entry C[C@H](O/N=C(\C(=O)N[C@@H]1C(=O)N2C(C(=O)[O-])=C(C[n+]3cnc(N)c(NCCNC(=O)c4cc(=O)c(O)cn4O)c3)CSC12)c1nc(N)sc1Cl)C(=O)O (stereo partly drawn) , tested on K. pneumoniae (38 clinical isolates), has a reported number of clinical isolates that showed the respective MIC value of 26

Field number of clinical isolates that showed the respective MIC value (K. pneumoniae (38 clinical isolates)), entry Cn1c(N)c(NC(=O)NCCN)c[n+]1CC1=C(C(=O)O)N2C(=O)[C@@H](NC(=O)/C(=N\OC(C)(C)C(=O)[O-])c3nsc(N)n3)[C@H]2SC1 [CXA-101, reference compound] : 35

Fill in: K. pneumoniae (38 clinical isolates) number of clinical isolates that showed the respective MIC value for CC(C)(O/N=C(\C(=O)N[C@@H]1C(=O)N2C(C(=O)[O-])=C(C[n+]3ccccc3)CS[C@H]12)c1csc(N)n1)C(=O)O [Ceftazidime, reference compound] = 32

###

System: E. cloacae β19
Test: In vitro antibacterial activity test (broth microdilution)
Assay type: cell-based
Conditions: Enterobacter cloacae, read-out: MIC90
ASSAY_ENDPOINT: MIC90 (µg/mL)

For orientation, consider the following solved cases.
Value of MIC90 reported for the compound CN(CCNc1c[n+](CC2=C(C(=O)[O-])N3C(=O)[C@@H](NC(=O)/C(=N\OC(C)(C)C(=O)O)c4csc(N)n4)C3SC2)cnc1N)Cc1ccc(O)c(O)c1 (some centres unmarked) is 8

Briefly, MIC90 measured for CC(C)(O/N=C(\C(=O)N[C@@H]1C(=O)N2C(C(=O)[O-])=C(C[n+]3cnc(NCCNC(=O)c4cc(=O)c(O)cn4O)c(N)c3)CSC12)c1csc(N)n1)C(=O)O (some centres unmarked) : 2

Note to self: MIC90 recorded for CC(C)(O/N=C(\C(=O)N[C@@H]1C(=O)N2C(C(=O)[O-])=C(/C=C/C[n+]3cnc(N)c(NCCNC(=O)c4cc(=O)c(O)cn4O)c3)CSC12)c1nc(N)sc1Cl)C(=O)O (some centres unmarked) was 0.125

a = CC(C)(O/N=C(\C(=O)N[C@@H]1C(=O)N2C(C(=O)[O-])=C(C[n+]3cnc(N)c(NC(=O)CCNC(=O)c4cc(=O)c(O)cn4O)c3)CSC12)c1nsc(N)n1)C(=O)O (some centres unmarked)
b = CC(C)(O/N=C(\C(=O)N[C@@H]1C(=O)N2C(C(=O)[O-])=C(C[n+]3cnc(N)c(NCCCCNC(=O)c4cc(=O)c(O)cn4O)c3)CSC12)c1csc(N)n1)C(=O)O (some centres unmarked)
# input Response body: label of entry with the larger MIC90; valid values a , b . Mark your selection by writing its label.
# output a
